This collection of values is drawn from ChEMBL document CHEMBL3120123.

// reported Papp A→B per item
Test details: Permeability across apical to basolateral side in human Caco2 cells
Assay type: ADME, cell-based
Condition parameters: Caco-2, read-out: permeability

Entry smiles	Papp A→B
O=c1ncn(Cc2c(F)cc(F)cc2F)c2ccc(Oc3ccc(-c4ccc5[nH]ccc5c4)cc3)cc12	3.5 ×10⁻⁶ cm/s
O=c1ncn(Cc2c(F)cc(F)cc2F)c2ccc(Oc3ccccc3C(F)(F)F)cc12	9.2 ×10⁻⁶ cm/s
O=c1ncn(Cc2c(F)cc(F)cc2F)c2ccc(Oc3cccc(-c4nc5ncccc5o4)c3C(F)(F)F)cc12	3 ×10⁻⁶ cm/s
Nc1ccc(-c2cccc(Oc3ccc4c(c3)c(=O)ncn4Cc3c(F)cc(F)cc3F)c2C(F)(F)F)cn1	4.1 ×10⁻⁶ cm/s
O=C(Nc1ccccn1)c1cccc(Oc2ccc3c(c2)c(=O)ncn3Cc2c(F)cc(F)cc2F)c1C(F)(F)F	1.2 ×10⁻⁶ cm/s
O=c1ncn(Cc2c(F)cc(F)cc2F)c2ccc(Oc3cccc(-c4ccc5[nH]cnc5c4)c3C(F)(F)F)cc12	0.4 ×10⁻⁶ cm/s
O=C(Nc1ccccc1)c1cccc(Oc2ccc3c(c2)c(=O)ncn3Cc2c(F)cc(F)cc2F)c1C(F)(F)F	0.84 ×10⁻⁶ cm/s
NC(=O)c1cccc(Oc2ccc3c(c2)c(=O)ncn3Cc2c(F)cc(F)cc2F)c1C(F)(F)F	1.9 ×10⁻⁶ cm/s
O=C(Nc1cccnc1)c1cccc(Oc2ccc3c(c2)c(=O)ncn3Cc2c(F)cc(F)cc2F)c1C(F)(F)F	0.26 ×10⁻⁶ cm/s
Cc1cc(-c2cccc(Oc3ccc4c(c3)c(=O)ncn4Cc3c(F)cc(F)cc3F)c2C(F)(F)F)cnc1N	1.1 ×10⁻⁶ cm/s
O=c1ncn(Cc2c(F)cc(F)cc2F)c2ccc(Oc3cccc(-c4ccc5[nH]ccc5c4)c3C(F)(F)F)cc12	10.5 ×10⁻⁶ cm/s
